testedOn: Sentrin-specific protease 8 (Homo sapiens)
testName: blockers of SENP8 deneddylase activity – biochemical, fluorescence, Nedd8 protein substrate, uHTS, primary screen (AID 602440)
conditionLabel: recombinant SENP8, Nedd8 substrate fluorescence; at 20 µM; stronger effect = higher value
Out of some 360,000 compounds screened, about 2,300 (0.64%) were called active. What follows is part of a selection rich in actives, with near analogues and random picks from the rest.
List of inhibition values.
endpointLabel: inhibition (%)

>>> result("COc1ccc2c(C(=O)c3ccc(C)cc3)n(CCC(N)=O)[n+]([O-])c2c1")
2.6
>>> result("CCN(CC)C(=O)CSc1nc2ccccc2n1CC(=O)N1CCN(c2ccccc2OC)CC1")
33.5
>>> result("Clc1ccc(C2[C@H]3CN(CC4CCCCC4)[C@H](c4ccccc4)C34CC2(c2cccnc2)C4)cn1 (stereo partly drawn)")
7.6
>>> result("Cc1cccc2nc(CNc3ccc(F)cc3)cn12")
-86.7
>>> result("COc1ccc(C(=O)NC(=S)N2CCCCC2c2cccnc2)cc1OC (stereo not drawn)")
8.4
>>> result("c1ccc(-c2c[nH]c(-c3ccccc3)c2)cc1")
-22
>>> result("CCOC(=O)N1CCC(Nc2c(NCCCN3CCN(CC)CC3)c(=O)c2=O)CC1")
20.5
>>> result("COc1ccc(Cc2nnc(SCC(=O)c3cccc([N+](=O)[O-])c3)n2C)cc1")
10.4
>>> result("Cc1ccc(NC(=O)CN(C)C(=O)c2cccc(S(=O)(=O)N3CCCC3)c2)cc1")
18.7
>>> result("CCOC(=O)N1CCN(c2c(NCCCN3CCCC(C)C3)c(=O)c2=O)CC1 (stereo not drawn)")
21.3
>>> result("Cc1ccc2[nH]cc(CCCN3C(=O)c4ccccc4C3=O)c2c1")
8.9
>>> result("CN(C)c1ccc(/C=C2\\NC(=S)N(Cc3ccccc3)C2=O)cc1")
46.7
>>> result("Cc1noc(C)c1NC(=O)Nc1ccc2c(c1)C(=O)N([C@H](C)CO)C[C@H](C)[C@@H](CN(C)S(=O)(=O)c1cn(C)cn1)O2")
-6
>>> result("Cc1ccc(NC(=O)CCN2C(=O)c3ccccc3C2=O)cc1C")
14.4
>>> result("CC(C)[C@H](NC(=O)OCc1ccccc1)C(=O)OCc1ccccc1")
5.8
>>> result("Cc1cc(-c2ccccc2)nc(N2CCC(C(=O)NC34CC5CC(CC(C5)C3)C4)CC2)n1")
-325
>>> result("Cc1cccc(C)c1NC(=O)C(c1cccc2ccccc12)n1c(=O)c(-c2ccco2)nc2ccccc21 (stereo not drawn)")
-458
>>> result("COc1ccc(C(=O)c2c3ccc([N+](=O)[O-])cc3[n+]([O-])n2CCCN)cc1")
48.4
>>> result("C/C=N/NC(=O)CCCC(=O)N/N=C/C")
6.6
>>> result("COc1ccc(C(C(=O)NC2CCCCC2)N(C(=O)Cc2c[nH]c3ccccc23)c2ccccc2)cc1OC (stereo not drawn)")
-12.6
>>> result("O=C(NC1CC1)C1=C[C@H](c2coc3ccccc3c2=O)C[C@H](OCCCCO)O1")
-5
>>> result("O=C(NC(=S)N1CCCCC1c1cccnc1)c1ccccc1 (stereo not drawn)")
46.4
>>> result("Cc1ccc(F)cc1NC(=O)c1cccc(N(C)C)c1")
-82.7
